Below: a set of entries, each annotated with reported Code 026 (activity in wells).
Target: activated human C1 (Homo sapiens)
Construct: C1s cleaved into disulfide-linked heavy and light chains; fluid-phase C2 consumption with C4
Sequence (P09871 16-688): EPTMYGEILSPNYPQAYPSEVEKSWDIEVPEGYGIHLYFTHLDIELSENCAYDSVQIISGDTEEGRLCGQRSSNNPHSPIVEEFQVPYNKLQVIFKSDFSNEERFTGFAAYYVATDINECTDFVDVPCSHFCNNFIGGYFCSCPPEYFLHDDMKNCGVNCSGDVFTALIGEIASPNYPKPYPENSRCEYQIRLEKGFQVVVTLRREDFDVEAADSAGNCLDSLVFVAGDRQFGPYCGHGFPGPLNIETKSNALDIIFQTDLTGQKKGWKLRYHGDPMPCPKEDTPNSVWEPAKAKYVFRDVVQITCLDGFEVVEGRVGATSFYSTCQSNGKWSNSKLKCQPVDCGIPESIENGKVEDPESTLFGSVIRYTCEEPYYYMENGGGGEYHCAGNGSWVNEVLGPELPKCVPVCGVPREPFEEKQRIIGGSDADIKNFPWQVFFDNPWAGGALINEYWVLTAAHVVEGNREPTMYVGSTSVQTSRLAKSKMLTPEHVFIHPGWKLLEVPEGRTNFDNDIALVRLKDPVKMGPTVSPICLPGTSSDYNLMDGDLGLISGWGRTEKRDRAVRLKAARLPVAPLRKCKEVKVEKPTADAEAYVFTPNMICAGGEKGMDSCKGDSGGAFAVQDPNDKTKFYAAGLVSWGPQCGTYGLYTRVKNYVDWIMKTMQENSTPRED
Sequence (P00736 18-705 partner): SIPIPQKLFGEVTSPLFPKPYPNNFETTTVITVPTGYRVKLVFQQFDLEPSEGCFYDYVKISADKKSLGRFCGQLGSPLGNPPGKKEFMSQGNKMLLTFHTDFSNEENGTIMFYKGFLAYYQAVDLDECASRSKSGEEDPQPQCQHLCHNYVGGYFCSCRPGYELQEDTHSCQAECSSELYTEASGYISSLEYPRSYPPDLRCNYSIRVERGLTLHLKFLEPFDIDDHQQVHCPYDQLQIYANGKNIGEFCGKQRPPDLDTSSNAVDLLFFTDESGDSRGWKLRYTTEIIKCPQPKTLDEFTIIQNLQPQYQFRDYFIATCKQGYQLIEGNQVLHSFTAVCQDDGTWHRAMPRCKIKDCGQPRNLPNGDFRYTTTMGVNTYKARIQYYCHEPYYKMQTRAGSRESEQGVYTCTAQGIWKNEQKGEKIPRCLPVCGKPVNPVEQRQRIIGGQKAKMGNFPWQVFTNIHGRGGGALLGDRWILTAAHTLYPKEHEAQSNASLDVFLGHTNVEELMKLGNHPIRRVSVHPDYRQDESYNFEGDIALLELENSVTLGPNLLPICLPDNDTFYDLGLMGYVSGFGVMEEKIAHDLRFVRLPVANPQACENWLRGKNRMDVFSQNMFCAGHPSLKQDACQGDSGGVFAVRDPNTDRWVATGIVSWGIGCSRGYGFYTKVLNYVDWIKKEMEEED
Sequence (P02745 23-245 partner): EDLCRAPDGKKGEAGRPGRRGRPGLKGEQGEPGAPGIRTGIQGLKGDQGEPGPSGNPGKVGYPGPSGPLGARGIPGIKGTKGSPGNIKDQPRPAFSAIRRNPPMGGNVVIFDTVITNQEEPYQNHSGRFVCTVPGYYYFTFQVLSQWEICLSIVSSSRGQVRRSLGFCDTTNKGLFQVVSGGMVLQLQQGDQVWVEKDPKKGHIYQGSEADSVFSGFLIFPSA
Sequence (P02746 28-253 partner): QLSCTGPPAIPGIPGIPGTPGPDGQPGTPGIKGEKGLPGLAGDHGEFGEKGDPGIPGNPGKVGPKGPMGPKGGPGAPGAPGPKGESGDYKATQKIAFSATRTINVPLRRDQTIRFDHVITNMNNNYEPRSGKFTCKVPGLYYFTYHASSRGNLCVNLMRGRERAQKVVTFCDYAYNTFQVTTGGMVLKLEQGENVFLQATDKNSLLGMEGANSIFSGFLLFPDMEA
Sequence (P02747 29-245 partner): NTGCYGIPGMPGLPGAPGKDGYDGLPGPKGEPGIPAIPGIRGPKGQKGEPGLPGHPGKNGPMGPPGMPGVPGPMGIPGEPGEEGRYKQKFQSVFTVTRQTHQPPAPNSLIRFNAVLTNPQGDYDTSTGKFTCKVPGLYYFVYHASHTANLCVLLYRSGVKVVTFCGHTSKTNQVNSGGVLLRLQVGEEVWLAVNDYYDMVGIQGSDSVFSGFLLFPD
Assay: Test, Code 026 (C1 inhibitor)
Type: biochemical
Conditions: serial two-fold dilutions assay; higher well number indicates higher activity
Where a name gives a salt, the structure may show the parent alone.

Reported Code 026 (activity in wells) of Cc1ccc(NC(=O)Nc2cc(S(=O)(=O)O)cc3cc(S(=O)(=O)O)cc(S(=O)(=O)O)c23)cc1NC(=O)Nc1cc(NC(=O)Nc2cc(S(=O)(=O)O)cc3cc(S(=O)(=O)O)cc(S(=O)(=O)O)c23)ccc1C : +4 wells

Reported Code 026 (activity in wells) of O=C(Nc1cc(S(=O)(=O)[O-])cc2cc(S(=O)(=O)[O-])cc(S(=O)(=O)[O-])c12)c1ccc([N+](=O)[O-])cc1.[Na+].[Na+].[Na+] : +1 wells

Reported Code 026 (activity in wells) of Nc1cccc(C(=O)Nc2cccc(C(=O)Nc3cc(S(=O)(=O)[O-])cc4cc(S(=O)(=O)[O-])cc(S(=O)(=O)[O-])c34)c2)c1.[Na+].[Na+].[Na+] : +2 wells

Reported Code 026 (activity in wells) of Cc1cc(C(=O)Nc2cc(S(=O)(=O)O)cc3cc(S(=O)(=O)O)cc(S(=O)(=O)O)c23)ccc1N [trisodium salt] : +3 wells

Reported Code 026 (activity in wells) of Cc1ccc(NC(=O)Nc2cccc(C(=O)Nc3cc(S(=O)(=O)[O-])cc4cc(S(=O)(=O)[O-])cc(S(=O)(=O)[O-])c34)c2)cc1[N+](=O)[O-].[Na+].[Na+].[Na+] : +2 wells

* * *

Below: a set of entries, each annotated with reported Code 026 (activity in wells).
Target: activated human C1 (Homo sapiens)
Construct: C1s cleaved into disulfide-linked heavy and light chains; fluid-phase C2 consumption with C4
Test: Test, Code 026 (C1 inhibitor)
Type: biochemical
Details: serial two-fold dilutions assay; higher well number indicates higher activity
Source text: This test measures the ability of activated human C1 to destroy fluid phase human C2 in the presence of C4 and appropriate dilutions of the test compound. An active inhibitor protects C2 from C1 and C4; (ii) Test, Code 035 (C3-C9 inhibitor) -- This test determines the ability of the late components of human complement (C3-C9) to lyse EAC 142 in the presence of appropriate dilutions of the test compound. […]
Counter-ions that a name gives are not always drawn.

Solved cases (5 shown):
>>> endpoint_result("Nc1ccc(C(=O)Nc2cc(S(=O)(=O)[O-])cc3cc(S(=O)(=O)[O-])cc(S(=O)(=O)[O-])c23)cc1.[Na+].[Na+].[Na+]")
"+3 wells"
>>> endpoint_result("Cc1ccc(C(=O)Nc2cc(S(=O)(=O)O)cc3cc(S(=O)(=O)O)cc(S(=O)(=O)O)c23)cc1[N+](=O)[O-] [trisodium salt]")
"+2 wells"
>>> endpoint_result("Cc1ccc(NC(=O)Nc2ccc(C)c(C(=O)Nc3cc(S(=O)(=O)O)cc4cc(S(=O)(=O)O)cc(S(=O)(=O)O)c34)c2)cc1C(=O)Nc1cc(S(=O)(=O)O)cc2cc(S(=O)(=O)O)cc(S(=O)(=O)O)c12")
"+5 wells"
>>> endpoint_result("O=C(Nc1cccc(C(=O)Nc2cc(S(=O)(=O)[O-])cc3cc(S(=O)(=O)[O-])cc(S(=O)(=O)[O-])c23)c1)Nc1cccc(C(=O)Nc2cc(S(=O)(=O)[O-])cc3cc(S(=O)(=O)[O-])cc(S(=O)(=O)[O-])c23)c1.[Na+].[Na+].[Na+].[Na+].[Na+].[Na+]")
"+6 wells"
>>> endpoint_result("Cc1ccc(C(=O)Nc2cc(S(=O)(=O)O)cc3cc(S(=O)(=O)O)cc(S(=O)(=O)O)c23)cc1N [trisodium salt]")
"+3 wells"

Reported Code 026 (activity in wells) of Cc1cc(C(=O)Nc2cc(S(=O)(=O)O)cc3cc(S(=O)(=O)O)cc(S(=O)(=O)O)c23)ccc1[N+](=O)[O-] [trisodium salt] : +1 wells

Reported Code 026 (activity in wells) of O=C(Nc1ccc(C(=O)Nc2cc(S(=O)(=O)[O-])cc3cc(S(=O)(=O)[O-])cc(S(=O)(=O)[O-])c23)cc1)Nc1ccc(C(=O)Nc2cc(S(=O)(=O)[O-])cc3cc(S(=O)(=O)[O-])cc(S(=O)(=O)[O-])c23)cc1.[Na+].[Na+].[Na+].[Na+].[Na+].[Na+] : +4 wells

Reported Code 026 (activity in wells) of Cc1ccc(C(=O)Nc2cc(S(=O)(=O)O)cc3cc(S(=O)(=O)O)cc(S(=O)(=O)O)c23)cc1NC(=O)C(=O)Nc1cc(C(=O)Nc2cc(S(=O)(=O)O)cc3cc(S(=O)(=O)O)cc(S(=O)(=O)O)c23)ccc1C : +4 wells
